Origin of values: PubChem BioAssay (NCI)

TGI by entry:
system: NCI-H226 lung; assay: NCI tumour cell line growth inhibition, 48 h
REPORTED_METRIC: TGI

>  <MOLECULE>
CN1CCN(c2ccc(Nc3cc(-c4cccc(-n5ccc6cc(C7CC7)cc(F)c6c5=O)c4CO)cn(C)c3=O)nc2)CC1

>  <EXPERIMENTAL_RESULT>
30.1 µM

$$$$
>  <MOLECULE>
Clc1cc2c(c(CSc3nc4ccccc4n4cccc34)c1)OCOC2

>  <EXPERIMENTAL_RESULT>
> 100 µM

$$$$
>  <MOLECULE>
CC(c1ccccc1)N1CCN(C(C)c2ccccc2)CC1 (centres undefined)

>  <EXPERIMENTAL_RESULT>
> 100 µM

$$$$
>  <MOLECULE>
CC(=NNC(=S)Nc1ccccc1)c1cccc(C(C)=NNC(=S)Nc2ccccc2)n1

>  <EXPERIMENTAL_RESULT>
> 44 µM

$$$$
>  <MOLECULE>
Cc1cc(/N=C/c2ccc(N(C)C)cc2)n(-c2ccccc2)n1

>  <EXPERIMENTAL_RESULT>
> 100 µM

$$$$
>  <MOLECULE>
CCOS(C)(=O)=O

>  <EXPERIMENTAL_RESULT>
> 100 µM

$$$$
>  <MOLECULE>
CSC1=N/C(=C\c2ccc(C)cc2)C(=O)N1CN1CCCCC1

>  <EXPERIMENTAL_RESULT>
> 100 µM

$$$$
>  <MOLECULE>
O=C1c2ccccc2C(=O)N1n1c(Cc2ccc([N+](=O)[O-])cc2)n[nH]c1=O

>  <EXPERIMENTAL_RESULT>
> 100 µM

$$$$
>  <MOLECULE>
O=[N+]([O-])c1ccc2occ3c2c1CCC3

>  <EXPERIMENTAL_RESULT>
> 100 µM

$$$$
>  <MOLECULE>
O=C(O)CCNc1ncnc2nc[nH]c12

>  <EXPERIMENTAL_RESULT>
> 100 µM

$$$$
>  <MOLECULE>
CCNC(=S)NNC(=O)C12CC3CC(CC(C3)C1)C2

>  <EXPERIMENTAL_RESULT>
> 100 µM

$$$$
>  <MOLECULE>
COc1ccc(C2OC(c3ccncc3)=NN2C)cc1F (centres undefined)

>  <EXPERIMENTAL_RESULT>
> 100 µM

$$$$
>  <MOLECULE>
CC12CCC(=O)C[C@H]1CCC(OC=O)C2Br (some centres undefined)

>  <EXPERIMENTAL_RESULT>
> 100 µM

$$$$
>  <MOLECULE>
O=C(Nc1ccc(Br)cc1F)c1cc(Cl)ccc1O

>  <EXPERIMENTAL_RESULT>
4.57 µM

$$$$
>  <MOLECULE>
O=C(O)CN1CCNCCN(CC(=O)O)CCN(CC(=O)O)CCNCC1

>  <EXPERIMENTAL_RESULT>
> 100 µM

$$$$
>  <MOLECULE>
CC(C)C1=Cc2ccc3c(c2C(=O)C1=O)CCCC3(C)C

>  <EXPERIMENTAL_RESULT>
35.9 µM

$$$$
>  <MOLECULE>
COc1ccc(OCC(=O)O)c2c1CCCC2=O

>  <EXPERIMENTAL_RESULT>
> 100 µM

$$$$
>  <MOLECULE>
COC(=O)/C(C#N)=C1\N=NNN1c1ccc(OC)cc1

>  <EXPERIMENTAL_RESULT>
> 100 µM

$$$$
>  <MOLECULE>
C/C(C[n+]1ccccc1)=N\N=C(N)N

>  <EXPERIMENTAL_RESULT>
> 100 µM

$$$$
>  <MOLECULE>
Cc1c2n(c(=O)[nH]c1=O)C1OC(CO)C(N=[N+]=[N-])C1O2 (centres undefined)

>  <EXPERIMENTAL_RESULT>
> 100 µM

$$$$
>  <MOLECULE>
CC1=CCC([C@@](C)(O)CCCC(C)(C)N=C=S)CC1 (some centres undefined)

>  <EXPERIMENTAL_RESULT>
32.1 µM

$$$$
>  <MOLECULE>
N#CC(C(=O)/C(=N\NC(N)=O)C(C#N)c1ccc(Cl)cc1)c1ccc(Cl)cc1 (centres undefined)

>  <EXPERIMENTAL_RESULT>
> 100 µM

$$$$
>  <MOLECULE>
Cc1c(N(C)C)ccc2c(=O)c3cccc(CC(=O)O)c3oc12

>  <EXPERIMENTAL_RESULT>
> 100 µM

$$$$
>  <MOLECULE>
COc1ccc(-c2nnc3n(C)c(=O)c4ccccc4n23)cc1N

>  <EXPERIMENTAL_RESULT>
> 100 µM

$$$$
